Tested on: UO-31
MEASUREMENT NOTES: NCI tumour cell line growth inhibition, 48 h
Active and inactive are the calls of the source. No stated cut-off is given here; in the data, active = GI50 up to about 1.1 µM and inactive = higher. Where a SMILES comes first, the peptide text is derived from it. Bridges are numbered along the chain shown (N, C = ends). [ ]: non-standard residue; d: D form. The star is where a group is joined. ξ: configuration not given here. X28 = O=C(/C=C/C=C/C=C/C=C/C=C/C(=O)*)NC1=C(O)CCC1=O; NMeA = CN[C@@H](C)C(=O)O; ξF = NC(Cc1ccccc1)C(=O)O; ξA = CC(N)C(=O)O
ASSAY READOUT: GI50

Exercise: State the measured GI50 (UO-31) of "Nc1ncnc2c1ncn2[C@@H]1O[C@H](COP(=O)(O)OP(=O)(O)OC[C@H]2O[C@@H](OCCCO)[C@H](O)[C@@H]2O)[C@@H](O)[C@H]1O"
Key: > 100 µM (inactive)

Exercise: Please report GI50 with UO-31 for item "Cc1ccc(S(=O)(=O)Oc2cc(S(=O)(=O)O)cc3cc(S(=O)(=O)O)cc(N)c23)cc1" .
Key: 41.1 µM (inactive)

Exercise: Determine reported GI50 for "O=c1[nH]nc(-c2ccccc2)n1-c1ccncc1" ; test system: UO-31.
Key: > 100 µM (inactive)

Exercise: Consider the molecule CC1NC(=O)[C@H](C)N(C)C(=O)[C@@H]2CCCN2C(=O)[C@@H](NC(=O)C(Cc2ccccc2)NC(=O)/C=C/C=C/C=C/C=C/C=C/C(=O)NC2=C(O)CCC2=O)COC(=O)[C@@H]2CCCN2C1=O (stereo not given in full) (X28-[ξF]SP[NMeA][ξA]P; ester 2-C) tested on UO-31; state its GI50.
Key: 29.2 µM (inactive)

Exercise: Give GI50 only, for "CC(C)(Cc1ccccc1)NC1=NCCO1" , using UO-31 data.
Key: > 100 µM (inactive)
